- System: Uterine Eosinophil Peroxidase (EPO)
- test summary: Uterine Eosinophil Peroxidase (EPO) Assay in ovariectomized rats
- Assay type: in vivo
- Set-up: unit not given here
- condition info: 1 mg/kg PO, Vmaximum, * p<0.05
endpoint name: Uterine EPO (Vmax)
Please reply with the number alone, leaving off any unit.

Ask | Quick one: Uterine EPO (Vmax) for `Cl.O=C(O)c1ccc2c(C(=O)c3ccc(OCCN4CCCCC4)cc3)c(-c3ccc(O)cc3)sc2c1` ?
Reply | 3.0

Ask | Quick one: Uterine EPO (Vmax) for `COC(=O)c1ccc2c(C(=O)c3ccc(OCCN4CCCCC4)cc3)c(-c3ccc(O)cc3)sc2c1.Cl` ?
Reply | 4.8

Ask | Quick one: Uterine EPO (Vmax) for `CC(C)COC(=O)c1ccc2c(C(=O)c3ccc(OCCN4CCCCC4)cc3)c(-c3ccc(O)cc3)sc2c1` ?
Reply | 3.3

Ask | Quick one: Uterine EPO (Vmax) for `CCCCOC(=O)c1ccc2c(C(=O)c3ccc(OCCN4CCCCC4)cc3)c(-c3ccc(O)cc3)sc2c1` ?
Reply | 0.0

Ask | Quick one: Uterine EPO (Vmax) for `CC(=O)c1ccc2c(C(=O)c3ccc(OCCN4CCCCC4)cc3)c(-c3ccc(O)cc3)sc2c1` ?
Reply | 2.1

Ask | Quick one: Uterine EPO (Vmax) for `C#Cc1ccc2c(C(=O)c3ccc(OCCN4CCCCC4)cc3)c(-c3ccc(O)cc3)sc2c1` ?
Reply | 4.8
